// provenance: patent US9944618B2

Experiment: pKa of basic centres (Table 1)
Format: physicochemical
Settings: first base, e.g., an aliphatic primary, secondary, or tertiary amine; read-out: pKa (Base 1)
PROPERTY MEASURED: pKa
In your answer, state the number alone without any accompanying words.

Some solved entries appear below for comparison.
[[record]]
molecule = "CNC[C@H](c1ccc(Cl)c(Cl)c1)[C@@H](O)c1cccc(NS(=O)(=O)C(F)(F)F)c1"
property_measured = "pKa"
result_value = 9.4

[[record]]
molecule = "CNC[C@H](c1ccc2ccccc2c1)[C@H](OCc1nc(C)no1)c1ccccc1"
property_measured = "pKa"
result_value = 9.6

[[record]]
molecule = "CNC[C@H](c1ccc2ccccc2c1)[C@H](O)c1cc(F)cc(F)c1 (racemic) [Compound 41]"
property_measured = "pKa"
result_value = 9.6


What pKa value was documented for this molecule, CNCC(CCc1ccccc1)[C@H](O)c1ccccc1 (stereo partly drawn) ?
10.1

// next record CNC[C@@H](c1ccc(Br)c(Cl)c1)[C@H](O)c1ccccc1 (racemic)
9.4
